Target system: T1, CD27 expressed on the cell surface (HT1080_CD27 cells) (human, UniProt P26842 20-260)
T1 construct: whole, on cells; also called K562_CD27
T1 sequence (looked up): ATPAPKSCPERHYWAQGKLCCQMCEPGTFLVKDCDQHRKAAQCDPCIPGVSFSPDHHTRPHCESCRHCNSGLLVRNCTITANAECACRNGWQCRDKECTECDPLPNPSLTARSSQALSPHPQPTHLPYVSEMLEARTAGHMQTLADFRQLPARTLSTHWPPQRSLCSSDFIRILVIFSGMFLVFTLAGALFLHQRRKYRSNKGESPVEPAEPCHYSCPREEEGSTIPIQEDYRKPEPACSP
Assay name: cellular binding assay, HT1080_CD27 cells; also: test concentration or dose not given here
Property name: Cellular binding assay [RFU]
Hi, when you answer, please include the unit after the number. Thanks!

Give Cellular binding assay [RFU] for each of the items listed below.
1. P018.S.03.A.H04 (antibody, V domains shown, V regions on human Ig constant parts; also called AB27_62) VH: QSLEESGGRLVTPGTPLTLTCTASGFSLSNYSMNWVRQAPGKGLEWIGIINTYGSAYYASWAKGRFTISKTSTTVDLKMTSLTTEDTATYFCARDAGGSTVPWFFDVWGPGTLVTVSS VL: AYDMTQTPASVEVAVGGTVTIKCQASQTISNYLAWYQQKPGQRPKLLIYDASKLASGVPSRFDGSGSGTEYTLTISGVGSADAATYYCQQGYADSNVDNVFGGGTEVVVK
2. P018.S.01.A.C02 (antibody, V domains shown, V regions on human Ig constant parts; also called AB27_7) VH: QSLEESGGDLVQPGASLTLTCTASGLDFISSYMCWVRQAPGKGLEWIGCIAPGGGNTYYATWAKGRFTFSETSSTTVTLQMTSLTAADTATYFCARTYPSIWYFGLWGPGTLVTVSS VL: DVVMTQTPASVSEPVGGTVTIKCQASQSIGSNLGWYQQKPGQPPKLLIYGASTLASGVSSRFKGSGSGTEFTLTMSDLESADAATYYCQSFYAASSAFGGGTEVVVK
3. P018.S.04.A.H04 (antibody, V domains shown, V regions on human Ig constant parts; also called AB27_79) VH: QSVEESGGRLVTPGTPLTLTCTVSRFSLSTSTMTWVRQAPGKGLEWIGIINGGGSAYYANWAKGRFTISKTSTTVDLKITSPTTEDTATYFCARSYDSYDDIYGTSRLYAFDPWGPGTLVTVSS VL: AYDMTQTPASVEVAVGGTVTINCQASESIYSNLAWYQQKPGQPPKLLIYRASYLASGVSSRFKGSGSGTQFTLTISGVESADAATYYCQQGYSSSDVDNAFGGGTEVVVK

["334 RFU", "324 RFU", "291 RFU"]
